Origin of values: paper PMC8592419

# reported MIC values; entries follow
test system: Mab ATCC19977 strain; type: cell-based, Mycobacterium abscessus
Where a SMILES comes first, the peptide text is derived from it.

{"columns": ["Compound", "MIC values"],
 "data": [
  ["CC(C)C[C@H](NC(=O)[C@H](CCCCN)NC(=O)[C@H](CC(C)C)NC(=O)[C@H](CC(C)C)NC(=O)[C@H](CC(C)C)NC(=O)[C@H](CC(C)C)NC(=O)[C@H](CC(C)C)NC(=O)[C@H](CCCCN)NC(=O)[C@H](CC(C)C)NC(=O)[C@@H](N)CCCCN)C(=O)O [KLK1] (H-KLKLLLLLKL-OH)", "400 µg/mL"],
  ["CC[C@H](C)[C@H](NC(=O)[C@H](CCCCN)NC(=O)[C@H](CCCNC(=N)N)NC(=O)CNC(=O)[C@H](CC(C)C)NC(=O)[C@H](CO)NC(=O)[C@H](CCCNC(=N)N)NC(=O)[C@H](CC(C)C)NC(=O)CNC(=O)CN)C(=O)N[C@@H](CC(C)C)C(=O)N[C@@H](CCCNC(=N)N)C(=O)N[C@@H](C)C(=O)N[C@@H](Cc1c[nH]c2ccccc12)C(=O)N[C@@H](CCCCN)C(=O)N[C@@H](CCCCN)C(=O)N[C@@H](Cc1ccc(O)cc1)C(=O)O [S61] (H-GGLRSLGRKILRAWKKY-OH)", "200 µg/mL"]
]}
